The measured values listed here are drawn from ChEMBL document CHEMBL4417631.

- experimental-protocol: Half life in simulated gastric fluid at 20 uM by LC-MS/MS analysis
- Assay type: ADME

# smi, half-life at 20 µM
rows = [
    ("CC(=O)NCCCC[C@H](NC(=O)[C@](C)(CCCCN)NC(=O)[C@H](Cc1ccc2ccccc2c1)NC(=O)[C@H](Cc1ccc(C(N)=O)cc1)NC(=O)[C@@H]1CSCC[C@H](NC(C)=O)C(=O)N[C@@H](CCC(N)=O)C(=O)N[C@@H]([C@@H](C)O)C(=O)N[C@@H](Cc2c[nH]c3ccccc23)C(=O)N[C@@H](CCC(N)=O)C(=O)N1)C(=O)N[C@@H](CC(N)=O)C(=O)NCC(N)=O", "< 1 h"),
    ("CC(=O)N[C@H](C(=O)N[C@@H](CCC(N)=O)C(=O)N[C@H](C(=O)N[C@@H](Cc1c[nH]c2ccccc12)C(=O)N[C@@H](CCC(N)=O)C(=O)N[C@H](C(=O)N[C@@H](Cc1ccc(OCCN)cc1)C(=O)N[C@@H](Cc1ccc2ccccc2c1)C(=O)N[C@@](C)(CC(C)C)C(=O)N[C@@H](CCC(N)=O)C(=O)N[C@@H](CC(N)=O)C(=O)N[C@@H](CC(N)=O)C(N)=O)C(C)(C)S)[C@@H](C)O)C(C)(C)S", "> 6 h"),
    ("COc1ccc(C[C@H](NC(=O)[C@@H](NC(=O)[C@H](CCC(N)=O)NC(=O)[C@H](Cc2c[nH]c3ccccc23)NC(=O)[C@@H](NC(=O)[C@H](CC(N)=O)NC(=O)[C@@H](NC(C)=O)C(C)(C)S)[C@@H](C)O)C(C)(C)S)C(=O)N[C@@H](Cc2ccc3ccccc3c2)C(=O)NC(C)(C)C(=O)N[C@@H](CCC(=O)O)C(=O)N[C@@H](CC(N)=O)C(=O)N[C@@H](CC(N)=O)C(N)=O)cc1", "> 6 h"),
]
